Assay: NCI Yeast Anticancer Drug Screen. Data for the bub3 strain (AID 167)
Details: S. cerevisiae bub3 mutant strain, at 50.0 µM, hits give high values
This is part of a sample that, as a whole, favours compounds with a hit. Of some 79,000 tested, about 15% had one in any assay.
observable: growth inhibition (%)
Answer format: numeric, % implied, no suffix.

For orientation, consider the following solved cases.
{"compound": "[N-]=[N+]=CC(=O)C1OC1c1ccc2ccccc2c1 (stereo unspecified)", "unit abbrev": "%", "growth inhibition": 14.3}
{"compound": "CC(=O)NC1(C)C(C)C2CC1C(C)C2(C)C (stereo unspecified)", "unit abbrev": "%", "growth inhibition": -30.6}
{"compound": "CCN(CC)CCN1C(=O)N(CCN(CC)CC)C(=O)C(CC)(CC)C1=O", "unit abbrev": "%", "growth inhibition": -1.65}

Exercise: Give recorded growth inhibition. N#CCCN(C1=NN(C(=O)CC(=O)Nc2ccc(Cl)cc2)C(c2ccccc2)C1)c1ccc(Cl)cc1 (stereo unspecified)
Key: -5.55

Exercise: Give recorded growth inhibition. CC1C[C@]2(C)C(=NCCN)Nc3ccccc3[C@@H]2N(C)c2ccccc21 (stereo partly specified)
Key: -13.2

Exercise: Give recorded growth inhibition. CC1(O)CC2C(CC1SC1CC3C(CC1(C)O)C3(C)C)C2(C)C (stereo unspecified)
Key: -51.7

Exercise: Give recorded growth inhibition. Cc1[nH]nc2c1NC(=O)OC2
Key: -8.15

Exercise: Give recorded growth inhibition. Clc1ccc2c(c1)N(C1CCCN(Cc3ccccc3)C1)c1ccccc1S2 (stereo unspecified)
Key: 43.7

---

Property: growth inhibition; scope: individual compounds
Experiment: NCI Yeast Anticancer Drug Screen. Data for the cln2 rad14 strain (AID 165);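 note: 0% = growth equal to vehicle treated cultures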
Conditions: S. cerevisiae cln2 rad14 strain, at 50.0 µM, hits give high values
The panel holds about 79,000 compounds, 15% with a hit somewhere; the sample as a whole holds those more often.
Answer format: numeric, % implied, no suffix.

For orientation, consider the following solved cases.
{"compound": "CC(=O)OCCCC(C)Nc1ccnc2cc(Cl)ccc12 (stereo not given)", "growth inhibition, %": 19.9}
{"compound": "COC(=O)C(/C(=N/N)C(=O)Nc1cc(Cl)ccc1Cl)c1nc2ccc([N+](=O)[O-])cc2[nH]c1=O (stereo not given)", "growth inhibition, %": 10.5}
{"compound": "CCCCCC(=O)Oc1ccccc1OC", "growth inhibition, %": -29.4}
{"compound": "Cc1nc2ccccc2[nH]1", "growth inhibition, %": 5.85}
{"compound": "COc1cc([C@@H]2c3cc4c(cc3[C@H](OC3OC5COC(C(C)C)OC5C(O)C3O)C3COC(=O)[C@@H]32)OCO4)cc(OC)c1OC (stereo not given in full)", "growth inhibition, %": 3.2}
{"compound": "Cc1cc(Cl)ccc1NC(=O)C1C(=O)C(=O)N(c2ccc(Cl)cc2C)C1=O (stereo not given)", "growth inhibition, %": 13.4}
{"compound": "CC(=O)[C@H]1C[C@@H](CC(=O)O)C1(C)C", "growth inhibition, %": -6}
{"compound": "CC1=CC(=O)/C(=C\\c2ccc3c(c2)OCO3)C(C)(C)C1", "growth inhibition, %": -19.4}
{"compound": "Cc1n[n+](Cc2ccccc2)c2sc(N)nn12", "growth inhibition, %": 20}

Exercise: Give recorded growth inhibition. COc1ccc(NC(=O)C(=O)NNC(=O)c2sc(NNC(C)=O)nc2C)c([N+](=O)[O-])c1
Key: 8.4
